Source: paper PMC12816604

Molecular target: J2 IgG light chain Y31A;J2 IgG heavy chain (HC-TEV-His8) (Mus musculus;Mus musculus, UniProt ; ;, Y31A|)
Sequence (chain, as listed by the source Y31A| | Y31A Y31A, chain 1 of 2): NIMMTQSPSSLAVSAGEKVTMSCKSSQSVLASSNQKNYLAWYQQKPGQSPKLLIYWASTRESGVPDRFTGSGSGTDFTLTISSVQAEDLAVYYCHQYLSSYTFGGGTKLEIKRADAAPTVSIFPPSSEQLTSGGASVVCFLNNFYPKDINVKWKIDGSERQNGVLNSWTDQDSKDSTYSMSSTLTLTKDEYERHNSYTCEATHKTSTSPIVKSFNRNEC
Sequence (chain, as listed by the source Y31A| | Y31A Y31A, chain 2 of 2): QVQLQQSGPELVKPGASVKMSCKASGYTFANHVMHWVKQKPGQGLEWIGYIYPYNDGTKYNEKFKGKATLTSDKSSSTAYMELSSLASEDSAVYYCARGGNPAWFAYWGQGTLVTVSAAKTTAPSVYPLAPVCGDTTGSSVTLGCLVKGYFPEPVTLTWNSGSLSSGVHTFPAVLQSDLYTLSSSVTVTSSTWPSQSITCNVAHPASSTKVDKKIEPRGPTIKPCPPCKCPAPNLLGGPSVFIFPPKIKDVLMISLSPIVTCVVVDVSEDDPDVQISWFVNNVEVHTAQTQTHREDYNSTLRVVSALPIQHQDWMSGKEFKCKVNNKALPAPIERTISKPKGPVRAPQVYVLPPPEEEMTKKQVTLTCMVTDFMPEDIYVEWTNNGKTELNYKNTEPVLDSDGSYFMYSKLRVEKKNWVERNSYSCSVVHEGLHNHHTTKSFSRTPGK
Test: BLI; 100 mM KCl; BLI: 25 mM Tris-HCl pH 7.5, 2 mM MgCl2, KCl 100 mM (6-20 bp and mutants), 200 mM (30 bp) or 400 mM (40, 50 bp), 25 C; IgG immobilised on Protein A probes
Settings: protein: recombinant;recombinant; tags: His8 (C-term);; chain copies: 2;2; blunt
metric: pKd
Bear in mind: pKd is minus log10 of a mol/L concentration; give just that figure.

Look up pKd for this binder: 20-bp dsRNA (dsRNA) RNA 1: GUUGUAAAGAAGGUCAAUAU RNA 2: AUAUUGACCUUCUUUACAAC
6.03
